Hello, the source for this data is patent US20250243286A1, in case you need it.

- SYSTEM UNDER TEST: ActRIIA and ActRIIB (on TGFB/SMAD SBE Reporter HEK293 cells) (human)
- Sequence (chain, as listed by the source, chain 1 of 2): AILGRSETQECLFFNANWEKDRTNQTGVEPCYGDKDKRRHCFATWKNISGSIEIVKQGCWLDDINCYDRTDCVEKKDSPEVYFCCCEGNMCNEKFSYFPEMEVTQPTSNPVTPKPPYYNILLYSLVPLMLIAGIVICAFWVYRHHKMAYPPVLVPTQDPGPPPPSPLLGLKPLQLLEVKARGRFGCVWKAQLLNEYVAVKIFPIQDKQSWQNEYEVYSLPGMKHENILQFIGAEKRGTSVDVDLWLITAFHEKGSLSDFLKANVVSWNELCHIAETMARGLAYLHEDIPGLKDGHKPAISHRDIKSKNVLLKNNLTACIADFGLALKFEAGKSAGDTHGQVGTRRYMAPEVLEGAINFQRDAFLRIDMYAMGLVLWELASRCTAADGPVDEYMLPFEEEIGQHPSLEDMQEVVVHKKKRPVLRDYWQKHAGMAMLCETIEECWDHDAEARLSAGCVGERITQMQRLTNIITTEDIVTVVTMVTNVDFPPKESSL
- Sequence (chain, as listed by the source, chain 2 of 2): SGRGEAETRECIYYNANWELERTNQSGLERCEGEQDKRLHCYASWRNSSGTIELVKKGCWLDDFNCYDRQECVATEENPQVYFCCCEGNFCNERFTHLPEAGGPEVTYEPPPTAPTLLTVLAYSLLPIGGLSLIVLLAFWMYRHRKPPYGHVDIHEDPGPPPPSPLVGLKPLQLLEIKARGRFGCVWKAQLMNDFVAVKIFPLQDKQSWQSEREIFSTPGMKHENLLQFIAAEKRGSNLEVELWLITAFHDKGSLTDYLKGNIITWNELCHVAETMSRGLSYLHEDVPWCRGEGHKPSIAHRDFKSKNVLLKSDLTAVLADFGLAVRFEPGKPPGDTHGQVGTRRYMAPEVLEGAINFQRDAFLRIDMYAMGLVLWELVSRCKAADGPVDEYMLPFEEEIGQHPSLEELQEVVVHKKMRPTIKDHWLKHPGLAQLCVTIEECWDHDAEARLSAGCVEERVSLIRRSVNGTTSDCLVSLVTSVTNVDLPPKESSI
- ASSAY PROCEDURE: cell-based or functional assay
READOUT: IC90, Myostatin SMAD RGA (µM)
Number in µM, nothing else.

Query: IC90, Myostatin SMAD RGA; subject: Antibody Hegemark (antibody, V domains shown) VH: QVQLVQSGAEVKKPGSSVKVSCKASGYKFTSSYINWVRQAPGQGLEWMGTINAVSGSTSYAQKFQGRVTITADTSTSTAYMELSSLRSEDTAVYYCARGGWFDYWGQGTLVTVSS VL: QSALTQPRSVSGSPGQSVTISCTGTSSDVGSKNYVNWYQQHPGKAPKLMIYGVSKRHSGVPDRFSGSKSGNTASLTISGLQAEDEADYYCGTFAGGKYYGVFGGGTKLTVL
0.0234
